# Target or system: N-biotinyl-Aβ(1–42) (bioAβ42) oligomer assembly (Homo sapiens, UniProt P05067)
# Construct: N-biotinyl Aβ(1–42) (bioAβ42) was purchased from Anaspec; purchased Anaspec (Fremont, CA, USA) AS-23523-05
# Sequence (P05067 672-713): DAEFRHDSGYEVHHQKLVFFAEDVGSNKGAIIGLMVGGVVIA
# Assay protocol: biochemical
# Measurement conditions: EC50 against bioAβ42 oligomer assembly, concentration range 50 to 1.56 μM; duplicate, n = 3 independent experiments, ± SDEV
Give measured EC50 for each item. Keep answers brief.
Remember to put the unit after the number in your answer.

EC50 for COc1cc2c(cc1OCCOc1cccc(C(=O)/C=C/c3ccc(N(C)C)cc3)c1)C(=O)C(CC1CCN(Cc3ccccc3)CC1)C2 (centres unmarked) [15a] is 4.83 µM

EC50 for COc1cc2c(cc1OCCOc1ccc(C(=O)/C=C/c3ccc(N(C)C)cc3)cc1)C(=O)C(CC1CCN(Cc3ccccc3)CC1)C2 (centres unmarked) [16a] is 9.37 µM

* * *

pIC50: −log10 of the molar value.
Endpoint: pIC50. System: EfBChE (BChE from Equus ferus) (Equus caballus). Items follow.
Sequence (P81908 whole entry): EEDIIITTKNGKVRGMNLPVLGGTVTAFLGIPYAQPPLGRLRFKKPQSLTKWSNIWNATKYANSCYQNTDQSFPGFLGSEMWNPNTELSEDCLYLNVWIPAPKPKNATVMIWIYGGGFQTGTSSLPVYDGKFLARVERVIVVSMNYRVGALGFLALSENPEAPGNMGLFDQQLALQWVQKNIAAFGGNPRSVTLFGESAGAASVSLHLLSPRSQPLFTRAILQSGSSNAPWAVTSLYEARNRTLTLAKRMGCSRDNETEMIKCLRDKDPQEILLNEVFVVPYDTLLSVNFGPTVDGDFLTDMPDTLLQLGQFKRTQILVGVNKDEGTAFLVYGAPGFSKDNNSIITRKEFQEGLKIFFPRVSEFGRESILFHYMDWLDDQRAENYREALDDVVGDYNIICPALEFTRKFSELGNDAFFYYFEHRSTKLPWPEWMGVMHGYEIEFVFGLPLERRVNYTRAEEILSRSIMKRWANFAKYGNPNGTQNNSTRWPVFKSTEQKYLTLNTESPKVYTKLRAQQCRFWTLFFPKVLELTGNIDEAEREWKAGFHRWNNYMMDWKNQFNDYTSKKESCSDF

pIC50 for COc1cc2c(cc1OCCCCOc1ccc(C(=O)/C=C/c3ccc(N(C)C)cc3)cc1)C(=O)C(CC1CCN(Cc3ccccc3)CC1)C2 (stereo not drawn) [16b] is ~6.30

pIC50 for COc1cc2c(cc1OCCOc1ccc(C(=O)/C=C/c3ccc(N(C)C)cc3)cc1)C(=O)C(CC1CCN(Cc3ccccc3)CC1)C2 (stereo not drawn) [16a] is ~7.00

pIC50 for COc1cc2c(cc1OCCOc1cccc(C(=O)/C=C/c3ccc(N(C)C)cc3)c1)C(=O)C(CC1CCN(Cc3ccccc3)CC1)C2 (stereo not drawn) [15a] is 7.70

pIC50 for COc1cc2c(cc1OCCCCOc1cccc(C(=O)/C=C/c3ccc(N(C)C)cc3)c1)C(=O)C(CC1CCN(Cc3ccccc3)CC1)C2 (stereo not drawn) [15b] is 7.52

pIC50 for COc1cc2c(cc1OCCCCCCCCCCOc1cccc(C(=O)/C=C/c3ccc(N(C)C)cc3)c1)C(=O)C(CC1CCN(Cc3ccccc3)CC1)C2 (stereo not drawn) [15e] is ~5.00

pIC50 for COc1cc2c(cc1OCCCCCCCCCCCCOc1cccc(C(=O)/C=C/c3ccc(N(C)C)cc3)c1)C(=O)C(CC1CCN(Cc3ccccc3)CC1)C2 (stereo not drawn) [15f] is < 4.00

pIC50 for COc1cc2c(cc1OCCCCCCCCOc1cccc(C(=O)/C=C/c3ccc(N(C)C)cc3)c1)C(=O)C(CC1CCN(Cc3ccccc3)CC1)C2 (stereo not drawn) [15d] is ~5.70

pIC50 for COc1cc2c(cc1OCCCCCCCCCCCCOc1ccc(C(=O)/C=C/c3ccc(N(C)C)cc3)cc1)C(=O)C(CC1CCN(Cc3ccccc3)CC1)C2 (stereo not drawn) [16f] is < 4.00

pIC50 for COc1cc2c(cc1OCCCCCCOc1cccc(C(=O)/C=C/c3ccc(N(C)C)cc3)c1)C(=O)C(CC1CCN(Cc3ccccc3)CC1)C2 (stereo not drawn) [15c] is ~5.40

pIC50 for COc1cc2c(cc1OCCCCCCCCCCOc1ccc(C(=O)/C=C/c3ccc(N(C)C)cc3)cc1)C(=O)C(CC1CCN(Cc3ccccc3)CC1)C2 (stereo not drawn) [16e] is ~5.30

pIC50 for COc1cc2c(cc1OCCCCCCOc1ccc(C(=O)/C=C/c3ccc(N(C)C)cc3)cc1)C(=O)C(CC1CCN(Cc3ccccc3)CC1)C2 (stereo not drawn) [16c] is ~6.22

pIC50 for COc1cc2c(cc1OCCCCCCCCOc1ccc(C(=O)/C=C/c3ccc(N(C)C)cc3)cc1)C(=O)C(CC1CCN(Cc3ccccc3)CC1)C2 (stereo not drawn) [16d] is ~6.00

* * *

Give measured IC50 for each item. Keep answers brief.
# Target or system: EeAChE (AChE from Electrophorus electricus) (Electrophorus electricus, UniProt O42275)
# Sequence (O42275 24-633): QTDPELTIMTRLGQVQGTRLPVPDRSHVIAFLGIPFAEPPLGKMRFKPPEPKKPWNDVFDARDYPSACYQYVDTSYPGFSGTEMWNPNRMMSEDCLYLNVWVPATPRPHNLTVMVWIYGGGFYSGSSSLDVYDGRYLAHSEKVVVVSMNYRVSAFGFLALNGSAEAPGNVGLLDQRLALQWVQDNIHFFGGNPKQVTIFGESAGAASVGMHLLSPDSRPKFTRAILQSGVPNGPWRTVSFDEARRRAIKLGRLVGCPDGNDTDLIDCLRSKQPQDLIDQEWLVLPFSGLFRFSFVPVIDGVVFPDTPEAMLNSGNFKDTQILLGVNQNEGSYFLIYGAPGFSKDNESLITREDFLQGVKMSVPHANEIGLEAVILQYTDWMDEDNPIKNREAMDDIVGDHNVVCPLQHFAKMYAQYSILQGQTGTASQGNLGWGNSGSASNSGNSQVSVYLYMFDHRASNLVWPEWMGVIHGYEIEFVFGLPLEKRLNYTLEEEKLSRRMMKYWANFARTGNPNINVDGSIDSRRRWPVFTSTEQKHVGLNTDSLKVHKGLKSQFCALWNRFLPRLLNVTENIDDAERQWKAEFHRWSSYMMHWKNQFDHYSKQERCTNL
Answer format: numeric, nM implied, no suffix.

Measured IC50 for this entry COc1cc2c(cc1OCCOc1cccc(C(=O)/C=C/c3ccc(N(C)C)cc3)c1)C(=O)C(CC1CCN(Cc3ccccc3)CC1)C2 (stereo not drawn) [15a] on EeAChE (AChE from Electrophorus electricus) (Electrophorus electricus, UniProt O42275): 1020

Measured IC50 for this entry COc1cc2c(cc1OCCCCCCCCCCCCOc1cccc(C(=O)/C=C/c3ccc(N(C)C)cc3)c1)C(=O)C(CC1CCN(Cc3ccccc3)CC1)C2 (stereo not drawn) [15f] on EeAChE (AChE from Electrophorus electricus) (Electrophorus electricus, UniProt O42275): 1670

Measured IC50 for this entry COc1cc2c(cc1OCCOc1ccc(C(=O)/C=C/c3ccc(N(C)C)cc3)cc1)C(=O)C(CC1CCN(Cc3ccccc3)CC1)C2 (stereo not drawn) [16a] on EeAChE (AChE from Electrophorus electricus) (Electrophorus electricus, UniProt O42275): 70

Measured IC50 for this entry COc1cc2c(cc1OCCCCOc1ccc(C(=O)/C=C/c3ccc(N(C)C)cc3)cc1)C(=O)C(CC1CCN(Cc3ccccc3)CC1)C2 (stereo not drawn) [16b] on EeAChE (AChE from Electrophorus electricus) (Electrophorus electricus, UniProt O42275): 140

Measured IC50 for this entry COc1cc2c(cc1OCCCCCCOc1cccc(C(=O)/C=C/c3ccc(N(C)C)cc3)c1)C(=O)C(CC1CCN(Cc3ccccc3)CC1)C2 (stereo not drawn) [15c] on EeAChE (AChE from Electrophorus electricus) (Electrophorus electricus, UniProt O42275): 1220

Measured IC50 for this entry COc1cc2c(cc1OCCCCCCCCCCOc1cccc(C(=O)/C=C/c3ccc(N(C)C)cc3)c1)C(=O)C(CC1CCN(Cc3ccccc3)CC1)C2 (stereo not drawn) [15e] on EeAChE (AChE from Electrophorus electricus) (Electrophorus electricus, UniProt O42275): 1820

Measured IC50 for this entry COc1cc2c(cc1OCCCCCCCCCCOc1ccc(C(=O)/C=C/c3ccc(N(C)C)cc3)cc1)C(=O)C(CC1CCN(Cc3ccccc3)CC1)C2 (stereo not drawn) [16e] on EeAChE (AChE from Electrophorus electricus) (Electrophorus electricus, UniProt O42275): 1380

Measured IC50 for this entry COc1cc2c(cc1OCCCCCCCCOc1ccc(C(=O)/C=C/c3ccc(N(C)C)cc3)cc1)C(=O)C(CC1CCN(Cc3ccccc3)CC1)C2 (stereo not drawn) [16d] on EeAChE (AChE from Electrophorus electricus) (Electrophorus electricus, UniProt O42275): 520

Measured IC50 for this entry COc1cc2c(cc1OCCCCOc1cccc(C(=O)/C=C/c3ccc(N(C)C)cc3)c1)C(=O)C(CC1CCN(Cc3ccccc3)CC1)C2 (stereo not drawn) [15b] on EeAChE (AChE from Electrophorus electricus) (Electrophorus electricus, UniProt O42275): 650

Measured IC50 for this entry COc1cc2c(cc1OCCCCCCCCOc1cccc(C(=O)/C=C/c3ccc(N(C)C)cc3)c1)C(=O)C(CC1CCN(Cc3ccccc3)CC1)C2 (stereo not drawn) [15d] on EeAChE (AChE from Electrophorus electricus) (Electrophorus electricus, UniProt O42275): 1220

* * *

# Target or system: EeAChE (AChE from Electrophorus electricus) (Electrophorus electricus)
# Assay protocol: biochemical
# Measurement conditions: based on IC50 values against EeAChE and EfBChE
# Protocol: The ChE inhibition assays were performed as previously described. The 1,3- and 1,4-chalcone-donepezil hybrids (0.1 nM to 100 μM) were dissolved in sodium phosphate buffer ((100 μL), 0.1 M, pH 8.0). […] All assays were performed in triplicate. The data was plotted as a sigmoidal curve and IC50 values were calculated using SigmaPlot 14.0 (Systat Software, San Jose, CA, USA).

>  <Compound>
COc1cc2c(cc1OCCCCCCCCCCCCOc1cccc(C(=O)/C=C/c3ccc(N(C)C)cc3)c1)C(=O)C(CC1CCN(Cc3ccccc3)CC1)C2 (stereo not drawn) [15f]

>  <selectivity index (SI)>
>60

$$$$
>  <Compound>
COc1cc2c(cc1OCCOc1cccc(C(=O)/C=C/c3ccc(N(C)C)cc3)c1)C(=O)C(CC1CCN(Cc3ccccc3)CC1)C2 (stereo not drawn) [15a]

>  <selectivity index (SI)>
0.02

$$$$
>  <Compound>
COc1cc2c(cc1OCCCCOc1ccc(C(=O)/C=C/c3ccc(N(C)C)cc3)cc1)C(=O)C(CC1CCN(Cc3ccccc3)CC1)C2 (stereo not drawn) [16b]

>  <selectivity index (SI)>
≈3.6

$$$$

* * *

# Target or system: EeAChE (AChE from Electrophorus electricus) (Electrophorus electricus)
# Assay protocol: biochemical
# Measurement conditions: based on IC50 values against EeAChE and EfBChE
Endpoint label: selectivity index (SI)

>  <Molecule>
COc1cc2c(cc1OCCCCOc1cccc(C(=O)/C=C/c3ccc(N(C)C)cc3)c1)C(=O)C(CC1CCN(Cc3ccccc3)CC1)C2 (stereo not shown) [15b]

>  <Target or system>
EeAChE (AChE from Electrophorus electricus) (Electrophorus electricus)

>  <Reading>
0.05

$$$$
>  <Molecule>
COc1cc2c(cc1OCCOc1ccc(C(=O)/C=C/c3ccc(N(C)C)cc3)cc1)C(=O)C(CC1CCN(Cc3ccccc3)CC1)C2 (stereo not shown) [16a]

>  <Target or system>
EeAChE (AChE from Electrophorus electricus) (Electrophorus electricus)

>  <Reading>
≈1.4

$$$$
>  <Molecule>
COc1cc2c(cc1OCCCCCCCCOc1ccc(C(=O)/C=C/c3ccc(N(C)C)cc3)cc1)C(=O)C(CC1CCN(Cc3ccccc3)CC1)C2 (stereo not shown) [16d]

>  <Target or system>
EeAChE (AChE from Electrophorus electricus) (Electrophorus electricus)

>  <Reading>
≈1.9

$$$$
>  <Molecule>
COc1cc2c(cc1OCCCCCCOc1ccc(C(=O)/C=C/c3ccc(N(C)C)cc3)cc1)C(=O)C(CC1CCN(Cc3ccccc3)CC1)C2 (stereo not shown) [16c]

>  <Target or system>
EeAChE (AChE from Electrophorus electricus) (Electrophorus electricus)

>  <Reading>
≈1.2

$$$$
